These data points were gathered from ChEMBL document CHEMBL4808184.

Assay explanation: in vivo
Measurement context: rat, po, 5 mg/kg
Friendly reminder: Tmax at 24 h below 1 h is 1, at or above is 0.

Req: State whether 1 h exceeds Tmax at 24 h recorded for C[C@H]1COc2c(N3CC[C@@H](C4(N)CC4)C3)c(F)cc3cc(C(=O)O)c(=O)n1c23 .
Resp: 0

Req: State whether 1 h exceeds Tmax at 24 h recorded for C[C@H](N)[C@@H]1CCN(c2c(F)cc3cc(C(=O)O)c(=O)n4c3c2OC[C@@H]4C)C1 .
Resp: 1

Req: State whether 1 h exceeds Tmax at 24 h recorded for Cc1c(N2CCC(C3(N)CC3)C2)c(F)cc2c(CC(=O)N(C)C)cc(=O)n(C3CC3)c12 (stereo not given) .
Resp: 0

Req: State whether 1 h exceeds Tmax at 24 h recorded for Cc1c(N2CCC(C3(N)CC3)C2)c(F)cc2c(Cc3n[nH]c(=O)o3)cc(=O)n(C3CC3)c12 (stereo not given) .
Resp: 1

###

Assay explanation: in vivo
Measurement context: rat, iv
Readout: half-life at 24 h (h)
All answers are understood in h, so give the number only.

Req: I am curious: what half-life at 24 h value has been reported for Cc1c(N2CCC(C3(N)CC3)C2)c(F)cc2cc(C(=O)O)c(=O)n(C3CC3)c12 (stereo not given) ?
Resp: 1.32

Req: I am curious: what half-life at 24 h value has been reported for C[C@H](N)[C@@H]1CCN(c2c(F)cc3cc(C(=O)O)c(=O)n4c3c2OC[C@@H]4C)C1 ?
Resp: 3.02

Req: I am curious: what half-life at 24 h value has been reported for Cc1c(N2CCC(C3(N)CC3)C2)c(F)cc2c(Cc3n[nH]c(=O)o3)cc(=O)n(C3CC3)c12 (stereo not given) ?
Resp: 0.99

Req: I am curious: what half-life at 24 h value has been reported for Cc1c(N2CCC(C3(N)CC3)C2)c(F)cc2c(CC(=O)N(C)C)cc(=O)n(C3CC3)c12 (stereo not given) ?
Resp: 1.61

Req: I am curious: what half-life at 24 h value has been reported for C[C@H]1COc2c(N3CC[C@@H](C4(N)CC4)C3)c(F)cc3cc(C(=O)O)c(=O)n1c23 ?
Resp: 4.64

###

Assay explanation: in vivo
Measurement context: mouse, po, 5 mg/kg
Readout: Cmax at 24 h (µM)
All answers are understood in µM, so give the number only.

Req: I am curious: what Cmax at 24 h value has been reported for C[C@H]1COc2c(N3CC[C@@H](C4(N)CC4)C3)c(F)cc3cc(C(=O)O)c(=O)n1c23 ?
Resp: 0.49

###

Assay explanation: in vivo
Measurement context: rat, po, 3.35 mg/kg
Readout: Cmax at 24 h (nM)
All answers are understood in nM, so give the number only.

Req: I am curious: what Cmax at 24 h value has been reported for Cc1c(N2CC[C@@H](C3(N)CC3)C2)c(F)cc2cc(C(=O)O)c(=O)n(C3CC3)c12 ?
Resp: 1710

###

Assay explanation: physchem
Readout: pKa
I'd appreciate a reply containing only the number, no unit.

Req: I am curious: what pKa value has been reported for Cc1c(N2CCC(C3(N)CC3)C2)c(F)cc2c(Cc3n[nH]c(=O)o3)cc(=O)n(C3CC3)c12 (stereo unspecified) ?
Resp: 7.2
